System: M. phlei DSM 750
Test: MIC determination (broth microdilution)
Type: cell-based, Mycobacterium phlei
Details: Mycolicibacterium phlei, DSM750; M. phlei DSM 750; read-out: MIC
This section presents compounds with their documented MIC values.
Report the value in µg/mL with no unit label.

Field: example entries. Status: answers known.
compound	quantity kind	value
COc1c(NC(=O)c2ccc(NC(=O)c3ccc(NC(=O)[C@H](Cc4c[nH]nn4)NC(=O)c4ccc(NC(=O)/C(C)=C/c5ccc(O)cc5)cc4)cc3)cc2)ccc(C(=O)O)c1O [Compound 11, reference compound]	MIC	4
COc1c(NC(=O)c2ccc(NC(=O)c3ccc(NC(=O)[C@H](Cc4c[nH]nn4)NC(=O)c4ccc(NC(=O)/C(C)=C/c5ccc(O)cc5)cc4)cc3)cn2)ccc(C(=O)O)c1O [Compound 9]	MIC	1

Fill in MIC for record COc1c(NC(=O)c2ccc(NC(=O)c3ccc(NC(=O)[C@H](Cc4c[nH]nn4)NC(=O)c4ccc(NC(=O)/C(C)=C/c5cccnc5)cc4)cc3)c(OC)c2O)ccc(C(=O)O)c1O [Compound 4] 32

###

System: M. phlei DSM 750
Assay: MIC determination (broth microdilution)
Format: cell-based, Mycobacterium phlei
Settings: Mycolicibacterium phlei, DSM750; M. phlei DSM 750; read-out: MIC
Measured MIC by item
Numeric answer only, unit mg/L assumed.

>>> print(df.to_string())
                               smiles_entry  quantity_kind  value
0  COc1c(NC(=O)c2ccc(NC(=O)c3ccc(NC(=O)[C@H](Cc4c[nH]nn4)NC(=O)c4ccc(NC(=O)/C(C)=C/c5ccc(O)cc5)cc4)cc3)nc2)ccc(C(=O)O)c1O            MIC      2

Please report MIC for the following molecule: COc1c(NC(=O)c2ccc(NC(=O)[C@H](Cc3c[nH]nn3)NC(=O)c3ccc(NC(=O)/C(C)=C/c4ccc(O)cc4)cc3)cc2)ccc(C(=O)Nc2ccccc2)c1O 2

Supply MIC value. Item: COc1c(NC(=O)c2ccc(NC(=O)c3ccc(NC(=O)[C@H](Cc4c[nH]nn4)NC(=O)c4ccc(NC(=O)/C(C)=C/c5ccccn5)cc4)cc3)c(OC)c2O)ccc(C(=O)O)c1O 64

###

Test: in vitro
Conditions: human
quantity kind: GI50 (nM)
Response body: numeric value in nM, unit text excluded.

Look up and report measured GI50 for this entry: CN[C@@H]1C[C@H]2O[C@@](C)([C@@H]1OC)n1c3ccccc3c3c4c(c5c6ccccc6n2c5c31)C(=O)NC4 [Staurosporine, reference compound] 5.23

###

Quick list: log10 MIC per entry.
System: M. luteus DSM1790
Experiment: MIC determination (broth microdilution)
Assay type: cell-based, Micrococcus luteus
Conditions: Micrococcus luteus; M. luteus DSM1790; read-out: MIC
On a log10 scale: recorded MIC, unit µg/mL.

Some entries whose results are on file:
compound	log10 MIC
COc1c(NC(=O)c2ccc(NC(=O)[C@H](Cc3c[nH]nn3)NC(=O)c3ccc(NC(=O)/C(C)=C/c4ccc(O)cc4)cc3)cc2)ccc(C(=O)Nc2ccccc2)c1O [Compound 15]	0.00
COc1c(NC(=O)c2ccc(NC(=O)[C@H](Cc3c[nH]nn3)NC(=O)c3ccc(NC(=O)/C(C)=C/c4ccc(O)cc4)cc3)cc2)ccc(C(=O)Nc2ccc(C(=O)O)nc2)c1O [Compound 12]	1.51
COc1c(NC(=O)c2ccc(NC(=O)c3ccc(NC(=O)[C@H](Cc4c[nH]nn4)NC(=O)c4ccc(NC(=O)/C(C)=C/c5ccccn5)cc4)cc3)c(OC)c2O)ccc(C(=O)O)c1O [Compound 3]	1.51
COc1c(NC(=O)c2ccc(NC(=O)c3ccc(NC(=O)[C@H](Cc4c[nH]nn4)NC(=O)c4ccc(NC(=O)/C(C)=C/c5ccc(O)cc5)cc4)cc3)cc2)ccc(C(=O)O)c1O [Compound 11, reference compound]	0.90
COc1c(NC(=O)c2ccc(NC(=O)c3ccc(NC(=O)[C@H](Cc4c[nH]nn4)NC(=O)c4ccc(NC(=O)/C(C)=C/c5ccc(O)cc5)nc4)cc3)c(OC)c2O)ccc(C(=O)O)c1O [Compound 6]	0.60
COc1c(NC(=O)c2ccc(NC(=O)c3ccc(NC(=O)[C@H](Cc4c[nH]nn4)NC(=O)c4ccc(NC(=O)/C(C)=C/c5ccc(O)cc5)cc4)cc3)nc2)ccc(C(=O)O)c1O [Compound 10]	1.51
COc1c(NC(=O)c2ccc(NC(=O)c3ccc(NC(=O)[C@H](Cc4c[nH]nn4)NC(=O)c4ccc(NC(=O)/C(C)=C/c5cccnc5)cc4)cc3)c(OC)c2O)ccc(C(=O)O)c1O [Compound 4]	1.51
COc1c(NC(=O)c2ccc(NC(=O)c3ccc(NC(=O)[C@H](Cc4c[nH]nn4)NC(=O)c4ccc(NC(=O)/C(C)=C/c5ccc(O)cc5)cc4)cc3)cn2)ccc(C(=O)O)c1O [Compound 9]	0.00
COc1c(NC(=O)c2ccc(NC(=O)c3ccc(NC(=O)[C@H](Cc4c[nH]nn4)NC(=O)c4ccc(NC(=O)/C(C)=C/c5ccc(O)cc5)cn4)cc3)c(OC)c2O)ccc(C(=O)O)c1O [Compound 5]	-0.30
COc1c(NC(=O)c2ccc(NC(=O)[C@H](Cc3c[nH]nn3)NC(=O)c3ccc(NC(=O)/C(C)=C/c4ccc(O)cc4)cc3)cc2)ccc(C(=O)Nc2ccc(C(=O)O)cc2)c1O [Compound 14, reference compound]	0.30

Next, consider the following compound.
Specify log10 MIC for COc1c(NC(=O)c2ccc(NC(=O)[C@H](Cc3c[nH]nn3)NC(=O)c3ccc(NC(=O)/C(C)=C/c4ccc(O)cc4)cc3)cc2)ccc(C(=O)Nc2ccc(C(=O)O)cn2)c1O [Compound 13] , system M. luteus DSM1790. 0.60

###

Assay: in vivo
Conditions: male, CD-1, mouse, whole blood, iv, 50 mg/kg
quantity kind: half-life

For the compound COc1c(NC(=O)c2ccc(NC(=O)c3ccc(NC(=O)[C@H](Cc4c[nH]nn4)NC(=O)c4ccc(NC(=O)/C(C)=C/c5ccc(O)cc5)cc4)cc3)c(OC)c2O)ccc(C(=O)O)c1O , give its measured half-life value. 10.1 h

###

Assay: Cell proliferation assay (HepG2 cells)
Details: human
quantity kind: CC50 (µM)
Enter your answer as a number in µM; do not include the unit.

Look up CC50 of CN[C@@H]1C[C@H]2O[C@@](C)([C@@H]1OC)n1c3ccccc3c3c4c(c5c6ccccc6n2c5c31)C(=O)NC4 [Staurosporine, reference compound] and report it. 5.81

###

Experiment: physchem
Settings: 20 °C, pH 7.5, aqueous with cosolvent or surfactant or cyclodextrin, kinetic from dmso stock
quantity kind: solubility kinetic at 20 h (µg/mL)
Note: unit µg/mL is implicit; provide only the numeric part.

Answer with reported solubility kinetic at 20 h of COc1c(NC(=O)c2ccc(NC(=O)c3ccc(NC(=O)[C@H](CC#N)NC(=O)c4ccc(NC(=O)/C(C)=C/c5ccc(O)cc5)cc4)cc3)c(OC)c2O)ccc(C(=O)O)c1O 5.53

###

Target: E. coli DNA gyrase (Escherichia coli, UniProt P0AES4+P0AES6)
Construct: purchased inspiralis Limited, Norwich, UK
Assay: E. coli gyrase supercoiling inhibition assay
Format: biochemical
Parameters: key: ↑: for stronger inhibition; ≈: for equal inhibition; ↓: for diminished inhibition compared to albicidin 1
Details: constant concentration of 45 nM, compared to albicidin 1
Description: Escherichia coli Gyrase Supercoiling Inhibition Assay loaded on an agarose gel. 2-15. […] Addition of DNA All derivatives were tested at a concentration of […]

smiles entry	assayed target	E. coli gyrase inhibition
COc1c(NC(=O)c2ccc(NC(=O)c3ccc(NC(=O)[C@H](Cc4c[nH]nn4)NC(=O)c4ccc(NC(=O)/C(C)=C/c5ccc(O)cc5)nc4)cc3)c(OC)c2O)ccc(C(=O)O)c1O	E. coli DNA gyrase (Escherichia coli, UniProt P0AES4+P0AES6)	↓
COc1c(NC(=O)c2ccc(NC(=O)c3ccc(NC(=O)[C@H](Cc4c[nH]nn4)NC(=O)c4ccc(NC(=O)/C(C)=C/c5ccc(O)cc5)cn4)cc3)c(OC)c2O)ccc(C(=O)O)c1O	E. coli DNA gyrase (Escherichia coli, UniProt P0AES4+P0AES6)	↑
COc1c(NC(=O)c2ccc(NC(=O)c3ccc(NC(=O)[C@H](Cc4c[nH]nn4)NC(=O)c4ccc(NC(=O)/C(C)=C/c5cccnc5)cc4)cc3)c(OC)c2O)ccc(C(=O)O)c1O	E. coli DNA gyrase (Escherichia coli, UniProt P0AES4+P0AES6)	↓

###

Experiment: physchem
Conditions: 20 °C, pH 7.4, aqueous with cosolvent or surfactant or cyclodextrin, kinetic from dmso stock
quantity kind: solubility at 20 h
I'd appreciate it if you wrote the number followed by its unit.

Tell me measured solubility at 20 h for COc1c(NC(=O)c2ccc(NC(=O)c3ccc(NC(=O)[C@H](CC#N)NC(=O)c4ccc(NC(=O)/C(C)=C/c5ccc(O)cc5)cc4)cc3)c(OC)c2O)ccc(C(=O)O)c1O please. 5.53 µg/mL
